System: NHBE cells
Experiment Summary: Biolog metabolic array: substrate use by NHBE cells with or without CA09 infection
Format: cell-based, human
Assay Context: Virus (CA09-infected, MOI 1) NHBE cells, 11 hr
Parameter Measured: 590 nm absorbance normalized to zero hour (substrate use), 11 hr
Write the number on its own, no unit after it.

Example entries and their recorded answers appear below.
**Query** Endpoint output: 590 nm absorbance normalized to zero hour (substrate use), 11 hr of OC[C@H]1O[C@@](CO)(O[C@H]2O[C@H](CO)[C@@H](O)[C@H](O)[C@H]2O)[C@@H](O[C@H]2O[C@H](CO)[C@@H](O)[C@H](O)[C@H]2O)[C@@H]1O [D-Melezitose] . Value?
**Result** 5.01

**Query** Subsequent entry: O=C(O)[C@H](O)[C@@H](O)[C@H](O)[C@H](O)CO[C@H]1O[C@H](CO)[C@H](O)[C@H](O)[C@H]1O [Melibionic Acid]
**Result** 2.18

**Query** Subsequent entry: OC[C@@H](O)[C@@H](O)[C@H](O)[C@H](O)CO [D-Mannitol]
**Result** 0.57

We now examine a further compound.
**Query** Endpoint output: 590 nm absorbance normalized to zero hour (substrate use), 11 hr of OCC(O)CO [Glycerol] . Value?
**Result** 5.09

###

The following compounds are listed with their measured log reduction at 100 µM values.
System: CA09
Experiment Summary: microbe, parasite or virus in culture
Assay type: cell-based, influenza virus H1N1 strain A/CA/04/2009
Assay Context: NHBE, read-out: TCID50 (per mL)
Write the number on its own, no unit after it.

**Query** Hello, I am looking for reported log reduction at 100 µM with CA09 for O=C(CO)[C@@H](O)[C@@H](O)[C@H](O)[C@H](O)CO . Could you help?
**Result** -0.03

**Query** Subsequent entry: CC(C)c1nc(N(C)S(C)(=O)=O)nc(-c2ccc(F)cc2)c1/C=C/[C@@H](O)C[C@@H](O)CC(=O)O
**Result** 0.64

**Query** Subsequent entry: NC(=O)N1CCC(CC(=O)N2CCC([C@H]3c4ncc(Br)cc4CCc4cc(Cl)cc(Br)c43)CC2)CC1
**Result** 1.25

---
**Query** Hello, I am looking for reported log reduction at 100 µM with CA09 for C=C(C)[C@@H]1CC[C@]2(C(=O)O)CC[C@]3(C)[C@H](CC[C@@H]4[C@@]5(C)CC[C@H](O)C(C)(C)[C@@H]5CC[C@]43C)[C@@H]12 . Could you help?
**Result** 0.59

**Query** Subsequent entry: Nc1cc(C(F)(F)F)c(-c2cc(N3CCOCC3)nc(N3CCOCC3)n2)cn1
**Result** -0.37

**Query** Subsequent entry: CC(C)CCN1c2nc(Nc3cc(F)c(O)c(F)c3)ncc2N(C)C(=O)C1C (stereo not shown)
**Result** 0.65

**Query** Subsequent entry: Clc1ccccc1C(c1ccccc1)(c1ccccc1)n1ccnc1
**Result** 1.07

**Query** Subsequent entry: Cn1cncc1[C@@](N)(c1ccc(Cl)cc1)c1ccc2c(c1)c(-c1cccc(Cl)c1)cc(=O)n2C
**Result** 0

**Query** Subsequent entry: Cn1c(=O)n(-c2ccc(C(C)(C)C#N)cc2)c2c3cc(-c4cnc5ccccc5c4)ccc3ncc21
**Result** 0.91
